Reported AC50 values for the following compounds.
- System Tested: Mu-type opioid receptor (Homo sapiens); note: assay procedure not described here
- Sequence (P35372 whole entry): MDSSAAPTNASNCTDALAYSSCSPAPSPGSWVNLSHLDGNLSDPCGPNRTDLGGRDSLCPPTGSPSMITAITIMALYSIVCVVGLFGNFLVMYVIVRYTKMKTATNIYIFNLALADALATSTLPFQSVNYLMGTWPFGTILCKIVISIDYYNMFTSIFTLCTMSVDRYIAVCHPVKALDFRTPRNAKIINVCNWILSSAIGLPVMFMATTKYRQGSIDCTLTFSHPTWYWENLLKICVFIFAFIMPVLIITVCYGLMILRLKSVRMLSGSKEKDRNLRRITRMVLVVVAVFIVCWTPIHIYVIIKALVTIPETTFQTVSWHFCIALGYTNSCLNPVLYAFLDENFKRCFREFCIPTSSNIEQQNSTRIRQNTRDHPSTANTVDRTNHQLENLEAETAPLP

- Compound: "NS(=O)(=O)c1cc2c(cc1C(F)(F)F)NC(Cc1ccccc1)NS2(=O)=O (stereo unspecified) [BENDROFLUMETHIAZIDE]"
  System Tested: "Mu-type opioid receptor (Homo sapiens)"
  AC50: "> 30 µM"
- Compound: "CNCCCC1c2ccccc2C=Cc2ccccc21 [PROTRIPTYLINE]"
  System Tested: "Mu-type opioid receptor (Homo sapiens)"
  AC50: "> 10 µM"
- Compound: "OCCN1CCN(CC/C=C2/c3ccccc3Sc3ccc(Cl)cc32)CC1 [ZUCLOPENTHIXOL]"
  System Tested: "Mu-type opioid receptor (Homo sapiens)"
  AC50: "> 10 µM"
- Compound: "CC(C)CC(N(C)C)C1(c2ccc(Cl)cc2)CCC1 (stereo unspecified) [SIBUTRAMINE]"
  System Tested: "Mu-type opioid receptor (Homo sapiens)"
  AC50: "> 30 µM"
- Compound: "O=c1oc2ccccc2c(O)c1Cc1c(O)c2ccccc2oc1=O [DICUMAROL]"
  System Tested: "Mu-type opioid receptor (Homo sapiens)"
  AC50: "> 30 µM"
- Compound: "COc1cccc2c1C(=O)c1c(O)c3c(c(O)c1C2=O)C[C@@](O)(C(C)=O)C[C@@H]3O[C@H]1C[C@H](N)[C@H](O)[C@H](C)O1 [DAUNORUBICIN]"
  System Tested: "Mu-type opioid receptor (Homo sapiens)"
  AC50: "24 µM"
- Compound: "NS(=O)(=O)c1cc(C2(O)NC(=O)c3ccccc32)ccc1Cl (stereo unspecified) [CHLORTHALIDONE]"
  System Tested: "Mu-type opioid receptor (Homo sapiens)"
  AC50: "> 30 µM"
- Compound: "CCN(CC)C(=O)C1CN2CCc3cc(OC)c(OC)cc3C2CC1OC(C)=O (stereo unspecified) [BENZQUINAMIDE]"
  System Tested: "Mu-type opioid receptor (Homo sapiens)"
  AC50: "> 30 µM"
- Compound: "C[C@H]1C[C@H]2[C@@H]3CCC4=CC(=O)C=C[C@]4(C)[C@@]3(Cl)[C@@H](O)C[C@]2(C)[C@@]1(O)C(=O)CO [BECLOMETHASONE]"
  System Tested: "Mu-type opioid receptor (Homo sapiens)"
  AC50: "> 30 µM"
- Compound: "CC1(C)C(C=C(Cl)Cl)C1C(=O)OCc1cccc(Oc2ccccc2)c1 (stereo unspecified) [PERMETHRIN]"
  System Tested: "Mu-type opioid receptor (Homo sapiens)"
  AC50: "> 30 µM"
- Compound: "CC(CCc1ccccc1)NC(C)C(O)c1ccc(O)cc1 (stereo unspecified) [NYLIDRIN]"
  System Tested: "Mu-type opioid receptor (Homo sapiens)"
  AC50: "9.9 µM"
- Compound: "Cc1cnc(NC(=O)C2=C(O)c3ccccc3S(=O)(=O)N2C)s1 [MELOXICAM]"
  System Tested: "Mu-type opioid receptor (Homo sapiens)"
  AC50: "> 10 µM"
- Compound: "COCCCOc1ccnc(C[S+]([O-])c2nc3ccccc3[nH]2)c1C (stereo unspecified) [RABEPRAZOLE]"
  System Tested: "Mu-type opioid receptor (Homo sapiens)"
  AC50: "> 30 µM"
- Compound: "CCCOC(C(=O)OC1CCN(C)CC1)(c1ccccc1)c1ccccc1 [PROPIVERINE]"
  System Tested: "Mu-type opioid receptor (Homo sapiens)"
  AC50: "0.75 µM"
- Compound: "CC1(C)S[C@@H]2[C@H](NC(=O)[C@H](N)c3ccc(O)cc3)C(=O)N2[C@H]1C(=O)O [AMOXICILLIN]"
  System Tested: "Mu-type opioid receptor (Homo sapiens)"
  AC50: "> 10 µM"
- Compound: "CC[C@H]1OC(=O)[C@H](C)[C@@H](O[C@H]2C[C@@](C)(OC)[C@@H](O)[C@H](C)O2)[C@H](C)[C@@H](O[C@@H]2O[C@H](C)C[C@H](N(C)C)[C@H]2O)[C@](C)(O)C[C@@H](C)/C(=N\\OCOCCOC)[C@H](C)[C@@H](O)[C@]1(C)O [ROXITHROMYCIN]"
  System Tested: "Mu-type opioid receptor (Homo sapiens)"
  AC50: "> 30 µM"

* * *

- System Tested: UniProtKB P41145
- Sequence (P41145 whole entry): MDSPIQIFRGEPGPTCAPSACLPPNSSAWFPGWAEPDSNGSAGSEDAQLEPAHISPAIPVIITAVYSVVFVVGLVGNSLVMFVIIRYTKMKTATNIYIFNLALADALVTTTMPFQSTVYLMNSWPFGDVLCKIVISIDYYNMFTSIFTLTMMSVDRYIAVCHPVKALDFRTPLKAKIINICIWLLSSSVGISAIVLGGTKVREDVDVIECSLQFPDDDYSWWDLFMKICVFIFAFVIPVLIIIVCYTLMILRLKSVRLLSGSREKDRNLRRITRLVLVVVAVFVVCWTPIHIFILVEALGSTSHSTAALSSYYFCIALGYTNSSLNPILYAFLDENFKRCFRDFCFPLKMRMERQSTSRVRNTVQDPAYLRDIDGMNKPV
Reported AC50 values for the following compounds.

- Compound: "Clc1ccc(C(Cn2ccnc2)OCc2ccc(Sc3ccccc3)cc2)c(Cl)c1 (centres undefined)"
  AC50: "2.5 µM"
- Compound: "CCOC(=O)Nc1ccc2c(c1)N(C(=O)CCN1CCOCC1)c1ccccc1S2"
  AC50: "> 30 µM"
- Compound: "O=C1NC(=O)C(c2ccccc2)(c2ccccc2)N1"
  AC50: "> 10 µM"
- Compound: "COc1cccc2c1C(=O)c1c(O)c3c(c(O)c1C2=O)C[C@@](O)(C(C)=O)C[C@@H]3O[C@H]1C[C@H](N)[C@H](O)[C@H](C)O1"
  AC50: "> 30 µM"
- Compound: "Cc1ccc(NC(=O)C2(c3ccc4c(c3)OC(F)(F)O4)CC2)nc1-c1cccc(C(=O)O)c1"
  AC50: "> 30 µM"
- Compound: "CCN(CC)CC(=O)Oc1ccc(NC(C)=O)cc1"
  AC50: "18 µM"
- Compound: "CC(=O)Oc1ccccc1C(=O)Nc1ncc([N+](=O)[O-])s1 [NITAZOXANIDE]"
  AC50: "> 30 µM"
- Compound: "NS(=O)(=O)c1cc(C(=O)O)cc(N2CCCC2)c1Oc1ccccc1 [PIRETANIDE]"
  AC50: "> 30 µM"
- Compound: "CCCCC1(CC)C(=O)NC(=O)NC1=O"
  AC50: "> 30 µM"

* * *

- System Tested: Gamma-aminobutyric acid receptor subunit alpha-1 (Rattus norvegicus); note: assay procedure not described here
- Sequence (P62813 whole entry): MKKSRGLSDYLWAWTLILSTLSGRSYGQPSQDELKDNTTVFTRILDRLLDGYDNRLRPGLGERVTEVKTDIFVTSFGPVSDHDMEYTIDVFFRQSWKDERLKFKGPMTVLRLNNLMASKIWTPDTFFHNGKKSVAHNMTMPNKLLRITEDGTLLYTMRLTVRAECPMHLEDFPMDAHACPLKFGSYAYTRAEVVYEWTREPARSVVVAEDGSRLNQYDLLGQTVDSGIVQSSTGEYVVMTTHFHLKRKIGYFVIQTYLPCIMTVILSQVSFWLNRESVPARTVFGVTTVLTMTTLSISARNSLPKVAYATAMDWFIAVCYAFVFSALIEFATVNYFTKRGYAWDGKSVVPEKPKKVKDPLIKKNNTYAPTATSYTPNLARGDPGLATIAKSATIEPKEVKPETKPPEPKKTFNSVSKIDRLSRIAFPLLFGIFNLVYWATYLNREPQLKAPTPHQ
Reported AC50 values for the following molecules.

- Molecule: "CCCCNc1ccc(C(=O)OCCN(C)C)cc1 [TETRACAINE]"
  AC50: "> 10 µM"
- Molecule: "Clc1cccc(Cl)c1N=C1NCCN1 [CLONIDINE]"
  AC50: "> 10 µM"
- Molecule: "[H]/N=C(\\N/C(=N/[H])NCCCCCCNC(=N)NC(=N)Nc1ccc(Cl)cc1)Nc1ccc(Cl)cc1 [CHLORHEXIDINE]"
  AC50: "> 10 µM"
- Molecule: "NC(=O)CCC/N=C(\\c1ccc(Cl)cc1)c1cc(F)ccc1O [PROGABIDE]"
  AC50: "> 10 µM"
- Molecule: "COc1cccc2c1C(=O)c1c(O)c3c(c(O)c1C2=O)C[C@@](O)(C(C)=O)C[C@@H]3O[C@H]1C[C@H](N)[C@H](O)[C@H](C)O1 [DAUNORUBICIN]"
  AC50: "> 30 µM"
- Molecule: "CCN(CC)CC(=O)Oc1ccc(NC(C)=O)cc1 [PROPACETAMOL]"
  AC50: "> 30 µM"
- Molecule: "Cc1cc2nc3c(=O)[nH]c(=O)nc-3n(C[C@H](O)[C@H](O)[C@H](O)COP(=O)(O)O)c2cc1C [RIBOFLAVIN 5'-PHOSPHATE]"
  AC50: "> 30 µM"
- Molecule: "CC(C)OC(=O)C(C(=O)OC(C)C)=C1SC=CS1 [MALOTILATE]"
  AC50: "> 30 µM"
- Molecule: "CC1(C)S[C@@H]2[C@H](NC(=O)[C@H](N)c3ccc(O)cc3)C(=O)N2[C@H]1C(=O)O [AMOXICILLIN]"
  AC50: "> 30 µM"
- Molecule: "O=C1NC(=O)C(c2ccccc2)(c2ccccc2)N1 [PHENYTOIN]"
  AC50: "> 10 µM"
- Molecule: "C[C@@H]1CCC[C@H](C)N1NC(=O)c1ccc(Cl)c(S(N)(=O)=O)c1 [CLOPAMIDE]"
  AC50: "> 30 µM"
- Molecule: "CC(C)CC(N(C)C)C1(c2ccc(Cl)cc2)CCC1 (stereo not drawn) [SIBUTRAMINE]"
  AC50: "> 10 µM"
- Molecule: "CC(/C=C1\\SC(=S)N(CC(=O)O)C1=O)=C\\c1ccccc1"
  AC50: "> 30 µM"
- Molecule: "Cc1cnc(NC(=O)C2=C(O)c3ccccc3S(=O)(=O)N2C)s1 [MELOXICAM]"
  AC50: "> 10 µM"
- Molecule: "C#C[C@]1(O)CC[C@H]2[C@@H]3CCC4=CC(=O)CCC4=C3C=C[C@@]21CC [GESTRINONE]"
  AC50: "> 30 µM"
- Molecule: "O=C(CCCN1CCC2(CC1)C(=O)NCN2c1ccccc1)c1ccc(F)cc1 [SPIPERONE]"
  AC50: "> 30 µM"
- Molecule: "COc1ccnc(C[S+]([O-])c2nc3ccc(OC(F)F)cc3[nH]2)c1OC (stereo not drawn) [PANTOPRAZOLE]"
  AC50: "> 10 µM"
- Molecule: "CC1(C)O[C@@H]2[C@@H](CO[C@@]3(COS(N)(=O)=O)OC(C)(C)O[C@@H]23)O1 [TOPIRAMATE]"
  AC50: "> 10 µM"
